- MEASUREMENT_TARGET: TCF4/beta-catenin (Homo sapiens, UniProt P35222+Q9NQB0)
- Sequence (P35222 2-781 limits assumed, stated change not applied): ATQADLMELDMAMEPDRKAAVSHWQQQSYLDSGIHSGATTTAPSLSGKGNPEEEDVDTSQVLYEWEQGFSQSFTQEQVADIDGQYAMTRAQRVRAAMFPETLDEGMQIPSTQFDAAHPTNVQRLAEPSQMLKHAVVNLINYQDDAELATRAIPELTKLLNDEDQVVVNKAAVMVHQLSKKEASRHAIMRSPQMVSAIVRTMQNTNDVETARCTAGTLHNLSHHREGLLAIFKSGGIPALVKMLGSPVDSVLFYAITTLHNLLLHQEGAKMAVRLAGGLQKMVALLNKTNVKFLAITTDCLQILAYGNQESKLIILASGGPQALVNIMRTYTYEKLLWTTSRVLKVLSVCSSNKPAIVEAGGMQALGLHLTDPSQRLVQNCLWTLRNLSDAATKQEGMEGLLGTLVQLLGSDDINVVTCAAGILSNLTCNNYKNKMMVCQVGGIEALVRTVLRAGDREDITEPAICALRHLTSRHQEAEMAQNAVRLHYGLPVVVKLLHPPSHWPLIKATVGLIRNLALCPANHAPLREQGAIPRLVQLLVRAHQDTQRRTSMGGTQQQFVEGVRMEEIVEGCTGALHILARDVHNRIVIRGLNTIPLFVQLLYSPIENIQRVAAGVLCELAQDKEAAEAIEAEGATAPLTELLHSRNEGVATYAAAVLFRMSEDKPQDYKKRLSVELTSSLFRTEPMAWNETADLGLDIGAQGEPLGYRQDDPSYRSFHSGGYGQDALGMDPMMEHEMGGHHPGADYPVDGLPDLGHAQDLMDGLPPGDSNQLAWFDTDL
- Sequence (Q9NQB0 whole entry, stated change not applied): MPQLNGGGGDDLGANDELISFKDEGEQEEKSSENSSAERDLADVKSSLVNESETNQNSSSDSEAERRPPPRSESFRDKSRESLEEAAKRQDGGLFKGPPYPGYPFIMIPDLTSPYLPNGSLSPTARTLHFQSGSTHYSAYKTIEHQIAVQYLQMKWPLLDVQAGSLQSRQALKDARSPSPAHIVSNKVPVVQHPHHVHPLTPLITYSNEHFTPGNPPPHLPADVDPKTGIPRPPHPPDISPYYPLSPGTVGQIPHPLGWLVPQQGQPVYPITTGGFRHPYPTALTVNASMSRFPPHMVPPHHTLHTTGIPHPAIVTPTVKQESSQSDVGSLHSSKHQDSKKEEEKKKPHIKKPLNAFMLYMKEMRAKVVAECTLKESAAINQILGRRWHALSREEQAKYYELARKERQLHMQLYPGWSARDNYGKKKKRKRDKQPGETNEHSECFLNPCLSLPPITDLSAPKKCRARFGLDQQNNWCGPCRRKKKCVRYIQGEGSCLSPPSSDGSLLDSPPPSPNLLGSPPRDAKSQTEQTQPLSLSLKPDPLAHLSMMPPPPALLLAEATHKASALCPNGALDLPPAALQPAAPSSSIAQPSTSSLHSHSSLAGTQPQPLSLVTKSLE
- ASSAY_REMARKS: Inhibition of beta-catenin/TCF4 pathway expressed in HCT116 cells containing delta45S mutant after 24 hrs by luciferase reporter gene assay
- CONDITION: hct-116
MEASUREMENT_TYPE: pIC50
Expect pIC50 as a plain number equal to -log10 of the molar concentration.

These recorded examples may help you get a feel for the data.
CCNc1nc(NCc2ccc(C(=O)N[C@H]3C[C@@H]3c3ccccc3)cc2)c2cc(C)ccc2n1 (relative stereo): 5.46
CNc1nc(NCc2ccc(NC(=O)c3ccc(F)cc3)cc2)c2ccccc2n1: 5.46
CN(C)c1nc(NCc2ccc(C(=O)Nc3ccc(F)cc3)cc2)c2ccccc2n1: 5.52
CNc1nc(NCc2ccc(C(=O)NCCc3ccc(F)cc3)cc2)c2cc(C)ccc2n1: 6.00
CCCCNc1nc(NCc2ccc(C(=O)Nc3ccc(F)cc3)cc2)c2ccccc2n1: 5.82
Cc1ccc2nc(N(C)C)nc(NCc3ccc(C(=O)NCCc4ccc(F)cc4)cc3)c2c1: 5.82
CNc1nc(NCc2ccc(C(=O)NC3CCN(Cc4ccc(F)cc4)CC3)cc2)c2cc(C)ccc2n1: 5.52
Cc1ccc2nc(N(C)C)nc(NCc3ccc(C(=O)NC4CCN(Cc5ccc(F)cc5)CC4)cc3)c2c1: 5.60

Item under review: CCNc1nc(NCc2ccc(NC(=O)c3ccc(F)cc3)cc2)c2ccccc2n1 . Reported pIC50?
5.52

Now consider CCCNc1nc(NCc2ccc(NC(=O)c3ccc(F)cc3)cc2)c2ccccc2n1 and answer again.
5.60

Now consider CCNc1nc(NCc2ccc(C(=O)Nc3ccc(F)cc3)cc2)c2ccccc2n1 and answer again.
5.46

Now consider CCCNc1nc(NCc2ccc(C(=O)Nc3ccc(F)cc3)cc2)c2ccccc2n1 and answer again.
5.52

Now consider Cc1ccc2nc(N(C)C)nc(NCc3ccc(C(=O)NCc4ccc(F)cc4)cc3)c2c1 and answer again.
5.70

Now consider Cc1ccc2nc(N(C)C)nc(NCc3ccc(C(=O)Nc4ccc(Cl)nc4)cc3)c2c1 and answer again.
5.60

Now consider CCCNc1nc(NCc2ccc(C(=O)Nc3ccc(Cl)nc3)cc2)c2cc(C)ccc2n1 and answer again.
5.60
